Record form. Attribute: OD490. Fill in for each entry.
Target: T1, M2-2
T1 construct: also called PD1 mutant M2-2
Assay: scFv-phage ELISA
Give the value as a plain number.

Using the record for PD1-48A9 (antibody, V domains shown, scFv-phage in the screening ELISA; whole IgG in the other assays) VH: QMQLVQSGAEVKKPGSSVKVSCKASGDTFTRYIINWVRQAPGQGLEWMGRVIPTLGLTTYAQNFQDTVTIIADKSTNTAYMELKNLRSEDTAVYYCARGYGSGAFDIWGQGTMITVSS VL: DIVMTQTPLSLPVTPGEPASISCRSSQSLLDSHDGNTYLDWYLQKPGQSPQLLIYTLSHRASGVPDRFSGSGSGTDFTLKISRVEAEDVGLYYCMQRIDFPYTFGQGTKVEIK , report its OD490.
3.9

Field request: OD490 | item: PD1-41C9 (antibody, V domains shown, scFv-phage in the screening ELISA; whole IgG in the other assays) VH: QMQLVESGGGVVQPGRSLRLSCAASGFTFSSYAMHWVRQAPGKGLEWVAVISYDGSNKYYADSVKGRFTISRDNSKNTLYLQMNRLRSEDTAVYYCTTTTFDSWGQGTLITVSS VL: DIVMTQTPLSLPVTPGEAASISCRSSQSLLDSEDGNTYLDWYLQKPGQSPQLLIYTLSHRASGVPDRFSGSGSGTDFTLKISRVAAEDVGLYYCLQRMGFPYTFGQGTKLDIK
3.2
